Just for reference, ChEMBL document CHEMBL3352605 is where these values come from.

- targetOrTestSystem: Neuronal acetylcholine receptor subunit alpha-7 (Rattus norvegicus, UniProt Q05941)
- Sequence (Q05941 whole entry): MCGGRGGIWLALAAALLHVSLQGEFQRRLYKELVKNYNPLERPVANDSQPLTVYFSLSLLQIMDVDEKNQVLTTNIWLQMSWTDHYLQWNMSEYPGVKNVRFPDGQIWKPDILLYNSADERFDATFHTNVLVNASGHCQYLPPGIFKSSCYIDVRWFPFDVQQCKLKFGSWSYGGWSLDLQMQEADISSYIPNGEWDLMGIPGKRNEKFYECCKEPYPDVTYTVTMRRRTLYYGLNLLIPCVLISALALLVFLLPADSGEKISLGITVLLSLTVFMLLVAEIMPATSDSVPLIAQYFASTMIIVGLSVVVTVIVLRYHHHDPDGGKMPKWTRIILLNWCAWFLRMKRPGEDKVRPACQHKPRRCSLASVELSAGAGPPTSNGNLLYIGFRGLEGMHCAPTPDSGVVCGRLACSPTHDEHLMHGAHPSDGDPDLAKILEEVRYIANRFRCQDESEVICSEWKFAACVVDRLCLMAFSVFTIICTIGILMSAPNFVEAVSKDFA
- assay: Displacement of [3H]epibatidine from rat forebrain alpha7 nAChR by competition binding assay

{"moleculeSmiles": "CCOCC[C@H]1C[C@@H]1c1cncc(N2C[C@H]3CNC[C@H]3C2)c1.O=C(O)C(F)(F)F", "Ki [nM]": 680}

* * *

Collected Ratio Ki values appear next to each entry.
- Organism: Rattus norvegicus
- assay: Selectivity ratio of Ki for rat forebrain alpha3beta4 nAChR to rat forebrain alpha4beta2 nAChR

{"compound": "c1cnc2cc3c(cc2n1)[C@@H]1CNC[C@H]3C1 [VARENICLINE]", "valueOperator": "=", "Ratio Ki": 210}
{"compound": "FCC[C@H]1C[C@@H]1c1cncc(N2C[C@H]3CNC[C@H]3C2)c1.O=C(O)C(F)(F)F", "valueOperator": "=", "Ratio Ki": 1600}
{"compound": "CCOCC[C@H]1C[C@@H]1c1cncc(N2C[C@H]3CNC[C@H]3C2)c1.O=C(O)C(F)(F)F", "valueOperator": ">", "Ratio Ki": 25000}
{"compound": "O=C(O)C(F)(F)F.OCC[C@H]1C[C@@H]1c1cncc(N2C[C@H]3CNC[C@H]3C2)c1", "valueOperator": "=", "Ratio Ki": 2500}
{"compound": "c1cncc(N2C[C@H]3CNC[C@H]3C2)c1", "valueOperator": "=", "Ratio Ki": 400}
